Values from patent US11180504B2

- Test system: carbapenemase producing K. pneumoniae
- assayInfo: MIC by broth micro-dilution (CLSI), carbapenemase producing K. pneumoniae
- Type: cell-based, Klebsiella pneumoniae
- conditionSummary: Klebsiella pneumoniae, ATCCBAA1705, KPC-2 K. pneumoniae ATCC BAA-1705; read-out: MIC
Please go through the items and note down their MIC.
Value expressed in µg/mL; do not type the unit.

State its MIC on carbapenemase producing K. pneumoniae: C[C@H]([C@H]1C(=O)N2C(C(=O)O)=C(SC3CN[C@H](C(=O)N4CC[C@@H](N)C4)C3)[C@H](C)[C@H]12)n1cc(CO)nn1 (some centres unmarked)
4

Tell me reported MIC for `C[C@@H](NC(=O)[C@H]1CCCN1)[C@H]1C(=O)N2C(C(=O)O)=C(S[C@@H]3CN[C@H](CNS(N)(=O)=O)C3)[C@H](C)[C@H]12` , tested with carbapenemase producing K. pneumoniae.
8

Request body: readout MIC, system carbapenemase producing K. pneumoniae, query C[C@@H](NC(=O)Cn1cnnn1)[C@H]1C(=O)N2C(C(=O)O)=C(S[C@@H]3CN[C@H](C(=O)N4CCC5(CCNC5)C4)C3)[C@H](C)[C@H]12 (single isomer, unassigned) . Return the value.
1

Form field - read-out: MIC; system: carbapenemase producing K. pneumoniae; submitted item: `C[C@@H](NC(=O)C(F)F)[C@H]1C(=O)N2C(C(=O)O)=C(S[C@@H]3CN[C@H](C(=O)N4CC[C@H](NC(=O)N(C)C)C4)C3)[C@H](C)[C@H]12`
8

Missing value: MIC, carbapenemase producing K. pneumoniae, entry `C[C@@H](NC(=O)C(F)(F)C(F)(F)F)[C@H]1C(=O)N2C(C(=O)O)=C(S[C@@H]3CN[C@H](C(=O)N(C)C)C3)[C@H](C)[C@H]12` . Fill in?
8
